Data origin, for the record: patent US20240067751A1

system: T1, mouse MASP-2 D4-6 recombinant protein (mouse, UniProt Q91WP0 298-685)
T1 construct: Made 'similarly' to the human protein (N-terminal his6 tag)
T1 sequence (Q91WP0 other isoform, or with tags, fused parts or gaps limits assumed): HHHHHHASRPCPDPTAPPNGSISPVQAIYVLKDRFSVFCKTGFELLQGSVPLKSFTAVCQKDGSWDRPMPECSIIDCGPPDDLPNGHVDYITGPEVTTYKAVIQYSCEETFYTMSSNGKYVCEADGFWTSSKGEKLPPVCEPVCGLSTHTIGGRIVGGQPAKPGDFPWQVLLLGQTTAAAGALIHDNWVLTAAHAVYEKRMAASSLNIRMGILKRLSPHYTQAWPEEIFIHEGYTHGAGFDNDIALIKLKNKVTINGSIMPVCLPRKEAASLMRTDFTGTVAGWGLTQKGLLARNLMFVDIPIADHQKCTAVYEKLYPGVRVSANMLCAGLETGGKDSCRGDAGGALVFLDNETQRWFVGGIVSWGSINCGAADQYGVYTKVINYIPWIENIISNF
assay notes: SPR Biacore T200, antibody on Protein A chip, antigen as analyte, 1:1 fit
property: pKd
Keep in mind that pKd stands for -log10 of concentration in molar terms.

Input line: Give pKd for the following binder: chimeric antibody 10L3 (antibody, V domains shown) VH: DVQLQESGPGLVKPSQSLSLTCTVTGYSITSDYAWNWIRQFPGNKLEWMGYISYSGRTSYNPSLKSRISITRDTSKNQFFLQLNSVTTEDTATYYCAKLGGGHGMDYWGQGTSVTVSS VL: IVMTQSQKFMSTSVGDRVSVTCKASQNVDTNVAWYQQKPGQSPKALIYSASYRYSGVPDRFTGSGSGTDFTLTISNVQSEDLAEYFCLQYNSYLTFGSGTKLELK
Output line: 6.67
